meta.source: PubChem BioAssay AID248

- Tested on: L1210 leukemia ip in BDF1 mice, survival T/C
- testName: NCI In Vivo Anticancer Drug Screen. Data for tumor model L1210 Leukemia (intraperitoneal) in B6D2F1 (BDF1) mice
- assaySetup: endpoint: mean survival time; dose: 50.0 mg/kg/injection; schedule: Q01DX001 (ip); vehicle: saline; higher = longer survival
Toxic doses and inconclusive results are not listed.
T/C values, listed per item

Some molecules with known T/C results, for comparison:
molecule	T/C
[O-]/[N+](=C\c1cccc(O)c1)c1ccccc1	102 % of control
Cc1cn(C2CC(O)C(CO)O2)c(=O)n(Cc2ccccc2)c1=O (configuration not stated)	108 % of control
OB1OB(OB2OB(O)O2)O1	92 % of control
CC1(C)CCCC(C)(C)N1	94 % of control
O=[N+]([O-])c1cc(/C=N/Nc2nnc(N/N=C/c3ccc(Cl)c([N+](=O)[O-])c3)c3ccccc23)ccc1Cl	106 % of control

Next molecule, T/C to be filled in.
Task item: # input molecule: CN=C(N)c1ccc(N=C(N)c2ccc(N=C(N)c3ccc(N)cc3)cc2)cc1 ; wanted: its T/C
Reply: 115 % of control
